Just for reference, ChEMBL document CHEMBL6071151 is where these values come from.

Below, each entry is listed alongside its reported MIC.
Tested on: Streptococcus pneumoniae
assay: Antimicrobial activity against Streptococcus pneumoniae NP112 (NR-19213) assessed as reduction in microbial growth measured after 20 hrs by CLSI based broth microdilution method
Assay type: functional
Numbers only; they are read as µg/mL.

> print(dat)
                                   compound                    target  endpoint.name      u  observed.value
1  OC(CNCCOc1ccccc1C(F)(F)F)COc1ccc(C(F)(F)F)cc1 (centres undefined)  Streptococcus pneumoniae            MIC  µg/mL              16
2  OC(CNCCNc1ccccc1C(F)(F)F)CSc1ccc(C(F)(F)F)cc1 (centres undefined)  Streptococcus pneumoniae            MIC  µg/mL               4
3  OC(CNCCSc1ccccc1C(F)(F)F)CSc1ccc(C(F)(F)F)cc1 (centres undefined)  Streptococcus pneumoniae            MIC  µg/mL               8

Turning to the following compound.
The measured MIC associated with OC(CNCCNc1ccccc1C(F)(F)F)COc1ccc(C(F)(F)F)cc1 (centres undefined) reads 16

* * *

Tested on: Enterococcus faecalis
assay: Antimicrobial activity against Enterococcus faecalis ATCC 19433 assessed as reduction in microbial growth measured after 20 hrs by CLSI based broth microdilution method
Assay type: functional
Hi! Just check whether MIC is below 100 µg/mL. Below gives true (1), equal or above gives false (0).

Use these answered entries as a reference point.
> print(dat)
                                   compound      label
1  OC(CNCCNc1ccc(C(F)(F)F)cn1)COc1ccc(C(F)(F)F)cc1 (stereo unspecified)   true (1)
2  OC(CNCCNc1ccc(C(F)(F)F)cc1)COc1ccc(C(F)(F)F)cc1 (stereo unspecified)   true (1)
3  O=[N+]([O-])c1ccc(OCC(O)CNCCNc2ccc(F)cn2)cc1 (stereo unspecified)  false (0)
4  OC(CNCCNc1nccc(C(F)(F)F)n1)COc1ccc(F)cc1 (stereo unspecified)  false (0)

Incoming: Hello, I'm reviewing records and need to know if MIC of O=[N+]([O-])c1ccccc1NCCNCC(O)COc1ccc(C(F)(F)F)cc1 (stereo unspecified) is below 100 µg/mL. Could you check?
Outgoing: false (0)

Incoming: Hello, I'm reviewing records and need to know if MIC of N#Cc1ccccc1NCCNCC(O)COc1ccc(C(F)(F)F)cc1 (stereo unspecified) is below 100 µg/mL. Could you check?
Outgoing: false (0)

Incoming: Hello, I'm reviewing records and need to know if MIC of O=[N+]([O-])c1ccc(OCC(O)CNCCNc2cc(C(F)(F)F)ccn2)cc1 (stereo unspecified) is below 100 µg/mL. Could you check?
Outgoing: false (0)

Incoming: Hello, I'm reviewing records and need to know if MIC of OC(CNCCNc1ccccc1C(F)(F)F)COc1ccc(C(F)(F)F)cc1 (stereo unspecified) is below 100 µg/mL. Could you check?
Outgoing: true (1)

Incoming: Hello, I'm reviewing records and need to know if MIC of O=[N+]([O-])c1ccc(OCC(O)CNCCNc2cccc(C(F)(F)F)n2)cc1 (stereo unspecified) is below 100 µg/mL. Could you check?
Outgoing: false (0)

Incoming: Hello, I'm reviewing records and need to know if MIC of OC(CNCCNc1nccc(C(F)(F)F)n1)COc1ccc(F)c(F)c1 (stereo unspecified) is below 100 µg/mL. Could you check?
Outgoing: false (0)

Incoming: Hello, I'm reviewing records and need to know if MIC of OC(CNCCNc1ccc(-c2ccccc2)cc1)COc1ccc(C(F)(F)F)cc1 (stereo unspecified) is below 100 µg/mL. Could you check?
Outgoing: false (0)

Incoming: Hello, I'm reviewing records and need to know if MIC of COC(=O)c1ccc(OCC(O)CNCCNc2nccc(C(F)(F)F)n2)cc1 (stereo unspecified) is below 100 µg/mL. Could you check?
Outgoing: false (0)

Incoming: Hello, I'm reviewing records and need to know if MIC of OC(CNCCNc1ccccc1C(F)(F)F)COCc1cccc(C(F)(F)F)c1.OC(CNCCNc1ccccc1C(F)(F)F)COCc1cccc(C(F)(F)F)c1 (stereo unspecified) is below 100 µg/mL. Could you check?
Outgoing: false (0)

Incoming: Hello, I'm reviewing records and need to know if MIC of O=[N+]([O-])c1ccc(OCC(O)CNCCNc2ncccc2C(F)(F)F)cc1 (stereo unspecified) is below 100 µg/mL. Could you check?
Outgoing: false (0)

* * *

Tested on: Staphylococcus aureus
assay: Antimicrobial activity against Staphylococcus aureus ATCC 29213 assessed as reduction in microbial growth measured after 20 hrs by CLSI based broth microdilution method
Assay type: functional
endpoint-name: MIC

Worked cases, answers included:
> print(dat)
                                   compound  observed.value
1  OC(CNCCNc1ccc(C(F)(F)F)cn1)COc1ccc(C(F)(F)F)cc1 (stereo not given)        32 µg/mL
2  OC(CNCCNc1ccc(C(F)(F)F)cc1)COc1ccc(C(F)(F)F)cc1 (stereo not given)        32 µg/mL

Turning to the following compound.
So the reported MIC for OC(CNCCNc1nccc(C(F)(F)F)n1)COc1ccccc1 (stereo not given) , on Staphylococcus aureus, turned out to be > 256 µg/mL

* * *

Tested on: Acinetobacter baumannii
assay: Antimicrobial activity against Acinetobacter baumannii ATCC 19606 assessed as reduction in microbial growth measured after 20 hrs by CLSI based broth microdilution method
Type: functional
endpoint-name: MIC (µg/mL)
Numbers only; they are read as µg/mL.

Worked cases, answers included:
> print(dat)
                                   compound                   target      u  observed.value
1  O=[N+]([O-])c1ccc(OCC(O)CNCCNc2cccc(C(F)(F)F)n2)cc1 (stereo not given)  Acinetobacter baumannii  µg/mL             256
2  O=[N+]([O-])c1ccc(OCC(O)CNCCNc2ccc(C(F)(F)F)cn2)cc1 (stereo not given)  Acinetobacter baumannii  µg/mL             128
3  OC(CNCCOc1ccccc1C(F)(F)F)COc1ccc(C(F)(F)F)cc1 (stereo not given)  Acinetobacter baumannii  µg/mL              16
4  OC(CNCCNc1nccc(C(F)(F)F)n1)COc1ccc(C(F)(F)F)cc1 (stereo not given)  Acinetobacter baumannii  µg/mL             128
5  OC(CNCCNc1ccccc1C(F)(F)F)COc1ccccc1C(F)(F)F (stereo not given)  Acinetobacter baumannii  µg/mL              64

So the reported MIC for O=[N+]([O-])c1ccc(OCC(O)CNCCNc2ccccc2C(F)(F)F)cc1 (stereo not given) , on Acinetobacter baumannii, turned out to be 128

* * *

Below, each entry is listed alongside its reported MIC.
Test system: Staphylococcus aureus
assay: Antimicrobial activity against Staphylococcus aureus ATCC 29213 assessed as reduction in microbial growth measured after 20 hrs by CLSI based broth microdilution method
Format: functional
Numbers only; they are read as mg/L.

Worked cases, answers included:
> print(dat)
                                   molecule                 target  endpoint.name  observed.value
1  OC(CNCCNc1ccccc1C(F)(F)F)COCc1ccc(C(F)(F)F)cc1 (stereo not given)  Staphylococcus aureus            MIC              64
2  OC(CNCCSc1ccccc1C(F)(F)F)CSc1ccc(C(F)(F)F)cc1 (stereo not given)  Staphylococcus aureus            MIC               8

The measured MIC associated with OC(CNCCNc1ccc(C(F)(F)F)cn1)COCc1ccccc1C(F)(F)F (stereo not given) reads 64

The measured MIC associated with O=[N+]([O-])c1ccc(OCC(O)CNCCNc2ccc(C(F)(F)F)cn2)cc1 (stereo not given) reads 32

The measured MIC associated with O=[N+]([O-])c1ccc(OCC(O)CNCCNc2nccc(C(F)(F)F)n2)cc1 (stereo not given) reads 128

* * *

Below, each entry is listed alongside its reported MIC.
Test system: Acinetobacter baumannii
assay: Antimicrobial activity against Acinetobacter baumannii ATCC 19606 assessed as reduction in microbial growth measured after 20 hrs by CLSI based broth microdilution method
Format: functional
Numbers only; they are read as µg/mL.

Worked cases, answers included:
> print(dat)
                                   compound  endpoint.name  observed.value
1  OC(CNCCNc1ccc(C(F)(F)F)cn1)CNc1ccc(C(F)(F)F)cc1 (stereo not given)            MIC              32
2  OC(CNCCNc1ccc(C(F)(F)F)cn1)COCc1ccccc1C(F)(F)F (stereo not given)            MIC             128
3  OC(CNCCNc1ccc(C(F)(F)F)cn1)CSCc1ccc(C(F)(F)F)cc1 (stereo not given)            MIC              32

The measured MIC associated with O=[N+]([O-])c1ccc(NCCNCC(O)COCc2ccc(C(F)(F)F)cc2)nc1 (stereo not given) reads 128

The measured MIC associated with OC(CNCCSc1ccccc1C(F)(F)F)COc1ccc(C(F)(F)F)cc1 (stereo not given) reads 32

The measured MIC associated with OC(CNCCNc1ccccc1C(F)(F)F)COCc1ccc(C(F)(F)F)cc1 (stereo not given) reads 64

The measured MIC associated with OC(CNCCNc1ccc(C(F)(F)F)cn1)COCc1ccccc1 (stereo not given) reads 256

The measured MIC associated with N#Cc1ccccc1NCCNCC(O)COc1ccc(C(F)(F)F)cc1 (stereo not given) reads 128

The measured MIC associated with OC(CNCCNc1ccccc1C(F)(F)F)COc1ccc(C(F)(F)F)cc1 (stereo not given) reads 16
